Reference source: paper PMC9482650

Target: HTRA1, Q92743
Sequence (Q92743 360-477): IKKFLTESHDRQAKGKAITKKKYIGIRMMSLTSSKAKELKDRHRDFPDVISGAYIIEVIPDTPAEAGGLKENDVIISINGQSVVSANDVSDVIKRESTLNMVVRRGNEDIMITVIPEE
Experiment: holdup assay
Set-up: key: below the threshold = too weak to quantify, mostly under pKd 3.1 to 4
Settings: plain residues with an end cap or a label only (N-terminal biotin on a linker: ado-ado)
quantity.measured: pKd
I only need the number, thanks.

**Q:** Determine its reported pKd: NISARRFTLC [FAM167B, Q9BTA0]
**A:** 4.47

**Q:** Quote pKd reported for PLATCDETSI [SEMA4F, O95754] please.
**A:** 3.89

**Q:** Give a short answer stating reported pKd for NNMAFETTHF [SLC5A12, Q1EHB4] .
**A:** 3.62

**Q:** Query pKd for PDSYHRRDFW [U2AF2, P26368]
**A:** 4.14

**Q:** Kindly indicate its recorded pKd. Item: DAAHHDESNC [FMNL3, Q8IVF7]
**A:** 3.76

**Q:** Tell me its pKd given GSQSQVETEA [FKBP4, Q02790] as the entry.
**A:** 3.85
